Would you kindly list melting point for each of these molecules?

Inquiry: Param item = CCOC(=O)c1sc(OCC)c2c1CCc1cnn(C)c1-2 ; retrieve measured melting point.
Reply text: 109 to 110 °C

Inquiry: Param item = Cc1cc(SC2=C(O)C[C@@](CCc3ccccc3)(C(C)C)OC2=O)c(C(C)C)c2sc(N)nc12 ; retrieve measured melting point.
Reply text: 160 to 162 °C

Inquiry: Param item = CC(C)(C)OC(=O)[C@H](CCC(=O)N1CCC2(CCN(Cc3ccccc3)CC2)CC1)NS(=O)(=O)c1ccccc1 ; retrieve measured melting point.
Reply text: 134 to 136 °C

Inquiry: Param item = Cc1c(NC(=O)c2ccc(OC[C@@H]3CCCO3)cc2)ccc2cc(CNCC(C)C)cnc12 ; retrieve measured melting point.
Reply text: 142 to 143 °C

Inquiry: Param item = Fc1ccc(-c2ncn(CCCOc3ccccc3)c2-c2ccncc2)cc1 ; retrieve measured melting point.
Reply text: 95 to 96 °C

Inquiry: Param item = COc1c2c(cc3c1OCO3)C(=O)CN(C)C2 ; retrieve measured melting point.
Reply text: 116 to 119 °C

---

Would you kindly list melting point for each of these molecules?

Inquiry: Param item = CCCCN(Cc1ccccc1)CC1CCc2c(C)cc3c(c2C1=O)CCC(=O)N3 (stereo not given) ; retrieve measured melting point.
Reply text: 190 to 193 °C

Inquiry: Param item = CCOC(=O)c1cnn(-c2cc(C)cc(C)c2)c1C#N ; retrieve measured melting point.
Reply text: 83.5 to 84.5 °C

Inquiry: Param item = COc1cccc2c1C(C)(C)CC(O)(C(F)(F)F)C2Nc1cccc2c1cnn2C (stereo not given) ; retrieve measured melting point.
Reply text: 172 to 174 °C

Inquiry: Param item = CC=CCn1c(C)c(C)c2cnnc(CCc3ccc(F)cc3F)c21 ; retrieve measured melting point.
Reply text: 114 to 118 °C

Inquiry: Param item = Cc1ccc2cc(-c3ccc(F)cc3F)ccc2n1 ; retrieve measured melting point.
Reply text: 86 °C

---

Would you kindly list melting point for each of these molecules?

Inquiry: Param item = COc1cc2c(cc1C#Cc1ccccc1)NC(=O)CC(c1cccc(C#N)c1)=N2 ; retrieve measured melting point.
Reply text: > 250 °C

Inquiry: Param item = CSc1ccc(-c2nnc(Oc3ccc(F)cc3F)cc2-c2ccc(Cl)cc2)cc1 ; retrieve measured melting point.
Reply text: 163 to 164 °C

Inquiry: Param item = Cn1cnc(COc2nc3c(cc2C(C)(C)C)nnn3-c2ccccc2)n1 ; retrieve measured melting point.
Reply text: 179 to 180 °C

Inquiry: Param item = COc1csc(C)c1N ; retrieve measured melting point.
Reply text: 61 to 63 °C

Inquiry: Param item = COc1ccc(-c2nnc(O)nc2-c2ccc(OC)cc2)cc1 ; retrieve measured melting point.
Reply text: 238 to 242 °C

Inquiry: Param item = Cc1nc(O)n(COCc2ccccc2)c1Sc1ccccc1 ; retrieve measured melting point.
Reply text: 147 to 148 °C

Inquiry: Param item = O=C(Nc1ccccc1)c1ccccn1 ; retrieve measured melting point.
Reply text: 75 to 77 °C

Inquiry: Param item = N#Cc1ccc(Cl)cc1NC(CCO)c1ccccc1 (stereo not given) ; retrieve measured melting point.
Reply text: 88 to 90 °C

Inquiry: Param item = CCn1ncc2c3onc(-c4cccc(C)c4)c3cnc21 ; retrieve measured melting point.
Reply text: 122 to 123 °C

Inquiry: Param item = O=C1c2ccccc2OCN1CCCl ; retrieve measured melting point.
Reply text: 45 °C

Inquiry: Param item = CC(C)(C)OC(=O)N1CCC(COc2ccc(C=NO)cc2)CC1 ; retrieve measured melting point.
Reply text: 140 to 142 °C

Inquiry: Param item = NC(=O)CNC(=O)c1cccc(-c2cccc3sc(Cc4ccc(F)c(F)c4)cc23)c1 ; retrieve measured melting point.
Reply text: 160 to 161 °C

Inquiry: Param item = Cn1nc(C(=O)Nc2ccc(OCC(C)(C)C)c(C#N)c2)cc1-c1ccccc1 ; retrieve measured melting point.
Reply text: 156 to 157 °C

Inquiry: Param item = CC(C)n1cc(C(=O)O)c2ccc(Br)cc21 ; retrieve measured melting point.
Reply text: 207 to 209 °C

Inquiry: Param item = CCOC(=O)CNC(=O)CS(=O)(=O)Nc1ccc(F)c(C(F)(F)F)c1 ; retrieve measured melting point.
Reply text: 145 to 147 °C

Inquiry: Param item = COc1ccc(-c2cc(C)c(=O)[nH]n2)cc1 ; retrieve measured melting point.
Reply text: 265 to 267 °C

Inquiry: Param item = Cc1c(SCCCN2CCN(Cc3ccncc3)CC2)ccnc1CNc1ncncc1Cl ; retrieve measured melting point.
Reply text: 149 to 151 °C

Inquiry: Param item = Cc1nnc(-c2ccc3occ(-c4ccccc4F)c3c2)o1 ; retrieve measured melting point.
Reply text: 112 to 113 °C

Inquiry: Param item = COc1cccc(CNc2ncnc3c2sc2nc(N4CCSCC4)c4c(c23)CC(C)(C)CC4)c1OC ; retrieve measured melting point.
Reply text: 112 to 114 °C

Inquiry: Param item = O=C(NC(=S)N1CCC(=O)C(C(c2ccccc2)c2ccccc2)C1)c1ccccc1 (stereo not given) ; retrieve measured melting point.
Reply text: 168 to 169 °C

Inquiry: Param item = COC(=O)Cc1ccc(CNC(=O)C2Cc3ccccc3N2S(=O)(=O)c2ccc(-c3ccc(F)cc3Cl)cc2)cc1 (stereo not given) ; retrieve measured melting point.
Reply text: 70 °C

Inquiry: Param item = O=C(O)Cc1ccc(Cc2n[nH]c3c2c(=O)n(-c2ccccc2)c2ncccc32)cc1 ; retrieve measured melting point.
Reply text: 297 to 300 °C

Inquiry: Param item = O=C(O)CCCc1cc2nc(Cl)ccc2n1S(=O)(=O)c1ccc(OC(F)(F)F)cc1 ; retrieve measured melting point.
Reply text: 168 °C

Inquiry: Param item = CC1SC(c2cccnc2)N(C)C1=O (stereo not given) ; retrieve measured melting point.
Reply text: 66.5 to 68.5 °C

Inquiry: Param item = CC(C)(C)c1ccc(Cn2ccc3ccc(-c4ccc(C(F)(F)F)cc4)cc32)cc1 ; retrieve measured melting point.
Reply text: 134 to 135 °C

Inquiry: Param item = CCCNC(=O)Nc1ccc(SC)cc1C(=O)NCC1CCN(C(c2ccccc2)c2ccccc2)CC1 ; retrieve measured melting point.
Reply text: 196 to 198 °C

Inquiry: Param item = O=c1ncc(Br)cn1CCC(O)Cl (stereo not given) ; retrieve measured melting point.
Reply text: 162 to 164 °C

Inquiry: Param item = Cc1[nH]cnc1CSCCO ; retrieve measured melting point.
Reply text: 74 to 76 °C

Inquiry: Param item = CCOC(=O)COc1ccc(C=O)cc1 ; retrieve measured melting point.
Reply text: 39 °C

Inquiry: Param item = COc1c(C)cc(C(=O)c2ccc(Cl)cc2)c(OC)c1OC ; retrieve measured melting point.
Reply text: 99.5 to 100 °C

Inquiry: Param item = CC1(C2CCC3C4CCC5CC=CCC5(C)C4C(=O)CC32C)OCCO1 (stereo not given) ; retrieve measured melting point.
Reply text: 130 to 135 °C

Inquiry: Param item = CN(C)S(=O)(=O)n1cc(C(=O)c2c(Cl)cc(Cl)cc2Cl)nc1C#N ; retrieve measured melting point.
Reply text: 142 to 150 °C

Inquiry: Param item = Nc1nc(NC2CCC(CO)C2)c2ncn(C3C=CC(CO)C3)c2n1 (stereo not given) ; retrieve measured melting point.
Reply text: 177 to 180 °C

Inquiry: Param item = CCOc1n[nH]cc1C(=O)NCc1ccc(Cl)cc1Cl ; retrieve measured melting point.
Reply text: 197 to 198 °C

Inquiry: Param item = CCOC(=O)C(N=C(c1ccc(Cl)cc1)c1ccc(OC)cc1O)C(=O)OCC ; retrieve measured melting point.
Reply text: 73 to 75 °C

---

Reported Metric: melting point

Inquiry: Param item = Cc1nccn1CCC(=O)c1nn2c3c(cccc13)CCC2 ; retrieve measured melting point.
Reply text: 133 to 134 °C

Inquiry: Param item = COC(=O)c1cc2c(C)ccc(C)c2n1C(=O)Oc1ccccc1 ; retrieve measured melting point.
Reply text: 83 to 84 °C

Inquiry: Param item = CC(=O)OC1OCC[C@@H]1NC(=O)[C@H](CC(C)C)NC(=O)OCc1ccccc1 (some centres not stated) ; retrieve measured melting point.
Reply text: 158 to 159 °C

Inquiry: Param item = CCN1C(=O)C(C(=O)Nc2cccc(C(=O)Nc3ccccc3)c2)c2cc(C(=O)c3ccccc3)ccc21 (configuration not stated) ; retrieve measured melting point.
Reply text: 129 to 135 °C

Inquiry: Param item = O=C(O)C1C=CC=CC1(F)OC(Cc1c(CCNS(=O)(=O)Cc2ccc(Cl)c(Cl)c2)[nH]c2ccc(Cl)cc12)C(c1ccccc1)c1ccccc1 (configuration not stated) ; retrieve measured melting point.
Reply text: 117 to 119 °C

Inquiry: Param item = CCOC(=O)c1nc(-c2cccc([N+](=O)[O-])c2)[nH]c1-c1ccc(OC)cc1 ; retrieve measured melting point.
Reply text: 208 to 210 °C

Inquiry: Param item = COc1ccc(N2CCN(c3c(C)c4c(c(OC(C)C)c3C)OC(C)C4)CC2)cc1 (configuration not stated) ; retrieve measured melting point.
Reply text: 110 to 112 °C

Inquiry: Param item = COc1cc2c(cc1O)CCCC2=O ; retrieve measured melting point.
Reply text: 117 to 119 °C

Inquiry: Param item = CCCCCCCCCCCCCCCCC#CCC(CO)COCCCCCCCCCCCCCCCC (configuration not stated) ; retrieve measured melting point.
Reply text: 46 to 47 °C

Inquiry: Param item = CCc1[nH]n(C2CCCC2)c2nc(-c3ccccc3C(F)(F)F)nc(=O)c1-2 ; retrieve measured melting point.
Reply text: 201 to 202 °C

Inquiry: Param item = O=C(Nc1cc(OCCCO/N=C/c2cc(C(F)(F)F)cc(C(F)(F)F)c2)ccc1C(=O)O)c1ccc(OC(F)(F)F)cc1 ; retrieve measured melting point.
Reply text: 184 to 186 °C

Inquiry: Param item = Cc1cccc(NC(=O)C2=C(O)c3ccc4ccccc4c3S(=O)(=O)N2C)n1 ; retrieve measured melting point.
Reply text: 221 to 223 °C

Inquiry: Param item = CCCOc1ccc2c(c1)C(=O)C(C(=O)OC)=C2c1ccc2c(c1)OCO2 ; retrieve measured melting point.
Reply text: 125 to 126 °C

Inquiry: Param item = Sc1nc2ncccc2[nH]1 ; retrieve measured melting point.
Reply text: > 250 °C

Inquiry: Param item = Nc1cc(F)ccc1Nc1ccccc1 ; retrieve measured melting point.
Reply text: 83 to 84 °C

Inquiry: Param item = CC1(C)CCC(C)(C)c2cc(S(=O)(=O)c3ccc(C(=O)O)cc3)ccc21 ; retrieve measured melting point.
Reply text: 218 to 220 °C

Inquiry: Param item = O=C(O)c1cn2c3c(cc(Cl)cc3c1=O)C(O)CC2 (configuration not stated) ; retrieve measured melting point.
Reply text: > 250 °C

Inquiry: Param item = N#Cc1cnc2cc(Cl)c([N+](=O)[O-])cc2c1Nc1ccc(F)c(Cl)c1 ; retrieve measured melting point.
Reply text: 259 to 263 °C

Inquiry: Param item = CCC(=NNc1ccc(C2=NNC(=O)CC2)cc1)c1ccncc1 ; retrieve measured melting point.
Reply text: 235 to 237 °C

Inquiry: Param item = Oc1ccc(CN[C@H]2CC[C@@H](C(c3ccccc3)c3ccccc3)OC2)cc1 (relative stereo) ; retrieve measured melting point.
Reply text: 136 to 138 °C

Inquiry: Param item = C=C1CC2(CC)C(=O)CC(OC(C)=O)C2C2CCC3=CC(=O)CCC3C12 (configuration not stated) ; retrieve measured melting point.
Reply text: 176 °C

Inquiry: Param item = CSc1ccc(-c2cncn2-c2ccc(S(C)(=O)=O)cc2)cc1 ; retrieve measured melting point.
Reply text: 153 to 155 °C

Inquiry: Param item = CC(=O)N1CC(=O)NC(Cc2cccc(NC(=O)OC(C)(C)C)c2)C1=O (configuration not stated) ; retrieve measured melting point.
Reply text: 189 to 190 °C

Inquiry: Param item = CC(Cn1c2ccccc2c2ccccc21)OS(C)(=O)=O (configuration not stated) ; retrieve measured melting point.
Reply text: 125 to 127 °C

Inquiry: Param item = Cn1nc(-c2cc([N+](=O)[O-])c(Cl)cc2F)c(Cl)c1S(C)=O (configuration not stated) ; retrieve measured melting point.
Reply text: 151 °C

Inquiry: Param item = CCOC(=O)Cc1nc(-c2ccc(C)cc2)oc1-c1ccco1 ; retrieve measured melting point.
Reply text: 84 to 85 °C

Inquiry: Param item = CC(C)(C)C(OC(=O)Cl)=C(Oc1ccc(Cl)cc1)n1cncn1 ; retrieve measured melting point.
Reply text: 159 to 161 °C

Inquiry: Param item = Cc1nc(N2CCN(Cc3cccc(C(F)(F)F)c3)C2=O)sc1-c1cc[nH]n1 ; retrieve measured melting point.
Reply text: 209 to 214 °C

Inquiry: Param item = CCCCCCCCS(=O)c1ccc(CC(N)(CO)CO)cc1 (configuration not stated) ; retrieve measured melting point.
Reply text: 80 to 82 °C

Inquiry: Param item = CC(=O)N1CCN(c2cncc(Cl)n2)CC1 ; retrieve measured melting point.
Reply text: 106 to 108 °C

Inquiry: Param item = CC1(C)CC(NC(=O)c2cc(Cl)cc(NC=O)c2O)CC(C)(C)C1 ; retrieve measured melting point.
Reply text: 214 to 215 °C

Inquiry: Param item = COC(=O)c1sc(C)c(Br)c1SC(=O)N(C)C ; retrieve measured melting point.
Reply text: 175 to 176 °C
